All figures here come from the supplement of paper PMC10567573.

B1: LMNB1 (parent)
chain: LYKEELEQTYHAKLENARLSSEMN

- Variants of: B1
- assay explanation: protein stability index of a GFP-peptide fusion (GPS, HEK-293T) (PSI 1-6); higher = more stable;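 note: lentivirally expressed fusions sorted by FACS into six bins by GFP to DsRed ratio, PSI derived from sequencing read proportions per bin multiplied by bin number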
- test settings: c terminus: a fixed tail appended
# protein stability index per entry
Answer with the value's number alone.

A selection of reference data follows.
[[record]]
variant_identifier = "E5A"
observed_measurement = 2.28

[[record]]
variant_identifier = "Y10V"
observed_measurement = 4.49

[[record]]
variant_identifier = "E7W"
observed_measurement = 2.34

[[record]]
variant_identifier = "N24E"
observed_measurement = 3.25

[[record]]
variant_identifier = "S20R"
observed_measurement = 3.26

[[record]]
variant_identifier = "E22P"
observed_measurement = 2.4


Field protein stability index (entry `L19M` ) reads 3.15

Measured protein stability index of `L6I` : 3.46

Measured protein stability index of `R18M` : 2.76

Notebook: `M23A` , protein stability index read as 3.24

Measured protein stability index, `Y2V` : 1.77

`Q8P` yielded protein stability index of 3.84

Entry `L14I` , protein stability index reported as 3.46

The value of protein stability index measured for the variant `L1D` turned out to be 4.03

Summary for this variant, `N24G` : protein stability index is 3.47

So, `N16T` ? Its protein stability index was 2.96

Form field protein stability index, entry `E5K` : 3.09

Lookup result for `L6N` ; measured protein stability index: 4.57

`L6T` has a reported protein stability index of 4.75

Form field protein stability index, entry `N24V` : 2.26

# variant `S20K` ; its protein stability index = 3.6

Recorded result, `Y10N` , protein stability index: 4.67

// sample `E4N` , its protein stability index was 3.27
